Target: Carnitine O-palmitoyltransferase 1, liver isoform (Homo sapiens)
Sequence (P50416 whole entry): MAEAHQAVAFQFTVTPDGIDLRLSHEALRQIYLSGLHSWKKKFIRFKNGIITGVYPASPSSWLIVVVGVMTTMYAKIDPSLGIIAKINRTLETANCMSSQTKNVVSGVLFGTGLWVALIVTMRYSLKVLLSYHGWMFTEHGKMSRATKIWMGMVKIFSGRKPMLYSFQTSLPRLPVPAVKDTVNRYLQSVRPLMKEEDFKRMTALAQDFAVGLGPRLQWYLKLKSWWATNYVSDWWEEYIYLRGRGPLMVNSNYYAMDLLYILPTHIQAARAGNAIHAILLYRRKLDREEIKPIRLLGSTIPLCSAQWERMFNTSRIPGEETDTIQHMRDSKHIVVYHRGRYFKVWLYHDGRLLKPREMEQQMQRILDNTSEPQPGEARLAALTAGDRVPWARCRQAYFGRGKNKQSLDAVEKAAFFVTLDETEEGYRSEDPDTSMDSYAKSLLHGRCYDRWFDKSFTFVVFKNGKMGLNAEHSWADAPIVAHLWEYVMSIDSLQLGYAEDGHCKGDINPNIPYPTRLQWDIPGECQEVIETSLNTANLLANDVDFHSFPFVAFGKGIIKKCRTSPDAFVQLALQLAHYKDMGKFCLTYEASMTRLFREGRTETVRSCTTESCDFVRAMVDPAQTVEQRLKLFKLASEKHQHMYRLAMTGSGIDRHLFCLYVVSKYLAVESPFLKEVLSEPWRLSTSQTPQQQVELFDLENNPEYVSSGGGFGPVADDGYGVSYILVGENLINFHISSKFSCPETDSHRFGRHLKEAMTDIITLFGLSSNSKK
Test: SUPPLEMENTARY: Inhibition of Carnitine palmitoyltransferase 1, liver isoform
RECORDED_ENDPOINT: IC50 (nM)
Kindly answer with a numeric value in nM, unit omitted.

Reference set (4 entries):
{"columns": ["CHEMICAL_STRUCTURE", "UNIT_OF_MEASURE", "IC50"],
 "data": [
  ["COc1ccc(Cl)cc1S(=O)(=O)N1COCc2ccc(C(=O)Nc3nc(CC(=O)O)cs3)cc21", "nM", 54],
  ["COc1ccc(Cl)cc1S(=O)(=O)N1CCc2c(C)cc(C(=O)Nc3ccc(C(=O)O)c(Cl)c3)cc21", "nM", 66.1],
  ["COc1ccc(-n2nnc([C@H]3CCCCN3C(=O)COc3ccccc3)n2)cc1", "nM", 159],
  ["O=C(COc1ccccc1)N1CCCC[C@@H]1c1nc(-c2ccc3nccn3c2)no1", "nM", 167]
]}

Now for a further compound.
Enquiry: Quick one: give measured IC50 for O=C(O)c1ccc(NC(=O)c2ccc3c(c2)N(S(=O)(=O)c2cccc(Cl)c2)CCO3)cc1
Return: 66.4

---

test: SUPPLEMENTARY: PAMPA permeability assay; format: physicochemical; conditions: read-out: Permeability
RECORDED_ENDPOINT: Papp (×10⁻⁶ cm/s)
Kindly answer with a numeric value in ×10⁻⁶ cm/s, unit omitted.

{"columns": ["CHEMICAL_STRUCTURE", "Papp [×10⁻⁶ cm/s]"],
 "data": [
  ["COc1ccc(Cl)cc1S(=O)(=O)N1COc2c(F)cc(C(=O)Nc3ccc(C(=O)O)c(F)c3)cc21", 1.87],
  ["COc1ccc(Cl)cc1S(=O)(=O)N1CCOc2c(C)cc(C(=O)Nc3ccc(CC(=O)O)cc3)cc21", 2.08],
  ["Cc1cccc(S(=O)(=O)N2CCOc3ccc(C(=O)Nc4nc(CC(=O)O)cs4)cc32)c1", 3.08],
  ["Cc1sc([C@H]2CCCCN2C(=O)COc2ccccc2)nc1-c1cccc(C(=O)O)c1", 6.19]
]}

Now for a further molecule.
Enquiry: Quick one: give measured Papp for N#Cc1ccc(-c2csc([C@H]3CCCCN3C(=O)COc3ccccc3)n2)cc1
Return: 1.95

---

assay: SUPPLEMENTARY: Lyophilisation Solubility Assay (LYSA); format: physicochemical; conditions: read-out: Kinetic_solubility
The reader will find reported solubility kinetic values listed item by item below.
Kindly answer with a numeric value in µg/mL, unit omitted.

{"columns": ["COMPOUND", "solubility kinetic / µg/mL"],
 "data": [
  ["Nc1cc(-c2noc([C@H]3CCCCN3C(=O)COc3ccccc3)n2)ccn1", 106],
  ["Nc1cccc(-c2n[nH]c([C@H]3CCCCN3C(=O)COc3ccccc3)n2)c1", 71],
  ["O=C(c1nc([C@H]2CCCCN2C(=O)COc2ccccc2)no1)N1CCC(c2ccncc2)C1 (stereo not given in full)", 204]
]}

Now for a further compound.
Enquiry: Quick one: give measured solubility kinetic for COc1ccc(C)cc1S(=O)(=O)N1CCCc2ccc(C(=O)Nc3nc(CC(=O)O)cs3)cc21
Return: 51

---

The reader will find reported IC50 values listed item by item below.
molecular target: Carnitine O-palmitoyltransferase 1, liver isoform (Rattus norvegicus); assay: SUPPLEMENTARY: Inhibition of Carnitine palmitoyltransferase 1, liver isoform
Sequence (P32198 whole entry, canonical isoform): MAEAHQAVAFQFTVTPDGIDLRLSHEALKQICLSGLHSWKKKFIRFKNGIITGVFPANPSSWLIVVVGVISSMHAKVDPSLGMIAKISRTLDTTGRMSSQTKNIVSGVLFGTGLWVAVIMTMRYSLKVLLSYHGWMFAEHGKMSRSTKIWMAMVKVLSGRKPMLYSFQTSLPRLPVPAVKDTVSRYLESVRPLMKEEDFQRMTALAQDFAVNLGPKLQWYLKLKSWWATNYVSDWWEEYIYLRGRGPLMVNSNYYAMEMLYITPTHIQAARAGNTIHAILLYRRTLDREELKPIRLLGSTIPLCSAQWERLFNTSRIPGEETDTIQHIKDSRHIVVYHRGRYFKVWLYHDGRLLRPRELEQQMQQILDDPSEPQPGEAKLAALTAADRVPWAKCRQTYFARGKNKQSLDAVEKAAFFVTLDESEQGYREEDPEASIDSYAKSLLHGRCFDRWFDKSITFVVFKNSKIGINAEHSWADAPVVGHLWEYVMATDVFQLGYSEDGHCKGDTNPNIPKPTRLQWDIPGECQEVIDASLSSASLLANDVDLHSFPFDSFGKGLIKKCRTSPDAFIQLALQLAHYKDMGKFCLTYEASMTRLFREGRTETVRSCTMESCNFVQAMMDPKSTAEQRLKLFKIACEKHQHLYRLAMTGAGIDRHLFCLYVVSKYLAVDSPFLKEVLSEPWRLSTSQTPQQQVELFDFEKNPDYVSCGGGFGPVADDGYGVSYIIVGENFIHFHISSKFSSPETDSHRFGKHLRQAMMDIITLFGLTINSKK
Kindly answer with a numeric value in µM, unit omitted.

Reference set (4 entries):
{"columns": ["COMPOUND", "UNIT_OF_MEASURE", "QUANTITATIVE_READOUT"],
 "data": [
  ["COc1ccc(Cl)cc1S(=O)(=O)N1CC(C)c2ccc(C(=O)Nc3ccc(C(=O)O)cc3)cc21 (stereo not given)", "µM", 0.021],
  ["O=C(COc1ccccc1)N1CCCC[C@@H]1c1noc(C2CCCCC2)n1", "µM", 0.664],
  ["O=C(O)c1ccc(-c2nc([C@H]3CCCCN3C(=O)COc3ccccc3)cs2)cc1", "µM", 2.23],
  ["O=C(COc1ccccc1)N1CCCCC1c1cc(-c2ccccc2)n[nH]1 (stereo not given)", "µM", 0.375]
]}

Now for a further compound.
Enquiry: Quick one: give measured IC50 for NC(=O)c1cccc(-c2n[nH]c([C@H]3CCCCN3C(=O)COc3ccccc3)n2)c1
Return: 0.563

---

target: Carnitine O-palmitoyltransferase 1, liver isoform (Rattus norvegicus); test: SUPPLEMENTARY: Inhibition of Carnitine palmitoyltransferase 1, liver isoform
RECORDED_ENDPOINT: pIC50
Notebook: values listed as pIC50 are -log10 of the concentration (mol/L).

Reference set (5 entries):
{"columns": ["CHEMICAL_STRUCTURE", "pIC50"],
 "data": [
  ["COc1ccc(Cl)cc1S(=O)(=O)N1CCOc2c(C)cc(C(=O)Nc3ccc(C(=O)O)cc3)cc21", 7.38],
  ["O=C1Cc2cc(-c3noc([C@H]4CCCCN4C(=O)COc4ccccc4)n3)ccc2N1", 7.15],
  ["COc1ccc(Cl)cc1S(=O)(=O)c1n[nH]c2ccc(C(=O)Nc3ccccc3)cc12", 6.99],
  ["CCCN(c1cc(C(=O)Nc2nc(CC(=O)O)cs2)cc2c1OCO2)S(=O)(=O)c1cc(Cl)ccc1OC", 6.88],
  ["O=C(COc1ccccc1)N1CCCC[C@@H]1c1nc(-c2cc[nH]c(=O)c2)no1", 6.47]
]}

Enquiry: Quick one: give measured pIC50 for COc1ccc(Cl)cc1S(=O)(=O)N1CCOc2c(F)cc(C(=O)Nc3ccc(C(=O)O)cc3)cc21
Return: 7.34

Enquiry: Quick one: give measured pIC50 for O=C([C@H]1CCCCN1C(=O)COc1ccccc1)N1Cc2ccc(Cl)cc2C1
Return: 6.25

Enquiry: Quick one: give measured pIC50 for COc1ccc(Cl)cc1S(=O)(=O)N1CCc2ccc(C#Cc3ccc(C(=O)O)cc3)cc21
Return: 6.95

Enquiry: Quick one: give measured pIC50 for O=C(COc1ccccc1)N1CCCC[C@@H]1c1noc(-c2cc([N+](=O)[O-])[nH]n2)n1
Return: 6.41

Enquiry: Quick one: give measured pIC50 for O=C(COc1ccccc1)N1CCCC[C@@H]1c1nc(-c2cccs2)n[nH]1
Return: 6.25

Enquiry: Quick one: give measured pIC50 for COc1ccc(Cl)cc1S(=O)(=O)N[C@@H]1CCCN(C(=O)COc2ccccc2)C1
Return: 7.02

Enquiry: Quick one: give measured pIC50 for COC(=O)c1ccc(-c2nc([C@H]3CCCCN3C(=O)COc3ccccc3)cs2)cc1
Return: 5.92

---

target: Carnitine O-palmitoyltransferase 2, mitochondrial (Homo sapiens, UniProt P23786); experiment: SUPPLEMENTARY: Inhibition of Carnitine palmitoyltransferase 2
Sequence (P23786 whole entry): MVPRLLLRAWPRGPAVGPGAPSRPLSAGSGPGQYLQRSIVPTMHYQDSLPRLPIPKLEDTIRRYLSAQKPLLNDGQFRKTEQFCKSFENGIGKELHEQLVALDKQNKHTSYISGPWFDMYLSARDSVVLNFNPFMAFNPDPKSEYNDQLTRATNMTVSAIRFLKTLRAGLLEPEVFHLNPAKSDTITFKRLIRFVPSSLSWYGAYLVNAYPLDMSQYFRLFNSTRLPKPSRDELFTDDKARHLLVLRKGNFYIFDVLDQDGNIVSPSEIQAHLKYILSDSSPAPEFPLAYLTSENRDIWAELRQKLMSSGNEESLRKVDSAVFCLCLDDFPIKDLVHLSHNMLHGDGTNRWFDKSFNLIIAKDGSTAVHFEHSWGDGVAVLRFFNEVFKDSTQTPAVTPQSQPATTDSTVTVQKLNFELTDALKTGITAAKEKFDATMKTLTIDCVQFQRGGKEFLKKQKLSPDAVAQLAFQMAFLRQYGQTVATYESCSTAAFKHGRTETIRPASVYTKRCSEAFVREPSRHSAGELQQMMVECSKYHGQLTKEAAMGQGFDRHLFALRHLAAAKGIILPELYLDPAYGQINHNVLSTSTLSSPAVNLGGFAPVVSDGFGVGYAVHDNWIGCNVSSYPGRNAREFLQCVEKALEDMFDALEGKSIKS
RECORDED_ENDPOINT: pIC50
Notebook: values listed as pIC50 are -log10 of the concentration (mol/L).

{"columns": ["CHEMICAL_STRUCTURE", "pIC50"],
 "data": [
  ["O=C([C@H]1CCCCN1C(=O)COc1ccccc1)N1CCc2ccc([N+](=O)[O-])cc2C1", 5.79],
  ["O=C(NCCO)c1cccc(-c2n[nH]c([C@H]3CCCCN3C(=O)COc3ccccc3)n2)c1", 4.52]
]}

Now for a further compound.
Enquiry: Output reported pIC50 of the compound COc1ccc(-n2nnc([C@H]3CCCCN3C(=O)COc3ccccc3)n2)cc1 on Carnitine O-palmitoyltransferase 2, mitochondrial (Homo sapiens, UniProt P23786).
Return: 4.62
